# Experimental context: 308.15 K; 101.33 kPa; Liquid; Pulse-echo method
Measured parameter: speed of sound (m/s)
Hi! Could you send only the number? It should be in m/s, unit omitted.

Report speed of sound for `CCCCNCCCC` please.
1207

Report speed of sound for `CCCCN` please.
1205.7

Report speed of sound for CCCOCC(C)OCC(C)O (centres undefined) please.
1234.1

Report speed of sound for `CCCCN(CCCC)CCCC` please.
1210.4

---

# Experimental context: 298.15 K; 101.33 kPa; Liquid; Pulse-echo method
Measured parameter: speed of sound (m/s)
Hi! Could you send only the number? It should be in m/s, unit omitted.

Report speed of sound for CCCCNCCCC [dibutylamine] please.
1246.7

Report speed of sound for CCCOCC(C)OCC(C)O (centres undefined) [1-(1-methyl-2-propoxyethoxy)-2-propanol] please.
1269.9

Report speed of sound for CCCCN [1-butanamine] please.
1250

Report speed of sound for CCCCN(CCCC)CCCC [tributylamine] please.
1247.6
